// data source = patent US20250205204A1

# test: Metabolic stability in liver microsomes (MLM)
# Format: in vitro ADME, mice
# settings: percent remaining at 60 min, 1 μM compound, 0.25 mg/mL protein, 1 mM NADPH
Could you mark each record condition met if its Met Stab % (60 mins) MLM falls strictly under 1%, and condition not met if it equals or exceeds it?

>>> df
                                   molecule              class
0  O=C(NNc1nc2ccccc2s1)C1Cc2ccccc2C1=O (stereo not drawn) [7-86]  condition not met
1  O=C1/C(=N\Nc2nc3ccccc3s2)Cc2cc(N3CCOCC3)ccc21 [7-103]  condition not met
2  Fc1ccc2c(c1)CC/C2=N/Nc1nc2ccccc2s1 [7-57]      condition met
3  O=c1c(=NNc2nc3ccccc3s2)c(=O)c2ccccc12 [7-85]  condition not met
